Each entry below lists one item and its recorded tissue uptake at 3 h value.
Experiment: in vivo
Parameters: species or system mice
Conditions: male, NOD.Cg-Rag1tm1Mom Il2rgtm1Wjl/SzJ (NRG), mouse, iv, total radioactivity, Biodistribution: Brain
Where a SMILES comes first, the peptide text is derived from it. Bridges are numbered along the chain shown (N, C = ends). [ ]: non-standard residue; d: D form. The star is where a group is joined. X4 = O=C(O)CN1CCN(CC(=O)O)CCN(CC(=O)N[C@@H](CS(=O)(=O)O)C(=O)NCCCC[C@H](NC(=O)CNC(=O)CCCc2ccc(Cl)cc2)C(=O)*)CCN(CC(=O)O)CC1; X3 = O=C(O)CN1CCN(CC(=O)O)CCN(CC(=O)N[C@@H](CS(=O)(=O)O)C(=O)N[C@@H](CCCCNC(=O)CCCc2ccc(Br)cc2)C(=O)*)CCN(CC(=O)O)CC1; X5 = O=C(O)CN1CCN(CC(=O)O)CCN(CC(=O)N[C@@H](CS(=O)(=O)O)C(=O)N[C@@H](CCCCNC(=O)CCCc2ccc(Cl)cc2)C(=O)*)CCN(CC(=O)O)CC1; X1 = O=C(O)CN1CCN(CC(=O)O)CCN(CC(=O)N[C@@H](CS(=O)(=O)O)C(=O)N[C@@H](CCCCNC(=O)CCCc2ccc(I)cc2)C(=O)*)CCN(CC(=O)O)CC1; 2Nal = N[C@@H](Cc1ccc2ccccc2c1)C(=O)O; Lys(iPr) = CC(C)NCCCC[C@H](N)C(=O)O
recorded_endpoint: tissue uptake at 3 h (%ID/g)

INSERT INTO measurements (molecule, recorded_endpoint, value) VALUES
  ('CC(C)NCCCC[C@H](NC(=O)[C@H]1CCC(=O)N[C@@H](CCCCNC(=O)[C@H](CCCCNC(=O)CCCc2ccc(I)cc2)NC(=O)[C@H](CS(=O)(=O)O)NC(=O)CN2CCN(CC(=O)O)CCN(CC(=O)O)CCN(CC(=O)O)CC2)C(=O)N[C@@H](Cc2ccc(O)cc2)C(=O)N[C@@H](CCCCNC(C)C)C(=O)N[C@H](CCCNC(=N)N)C(=O)N[C@@H](Cc2ccc3ccccc3c2)C(=O)N[C@H](C)C(=O)N1)C(N)=O [[^68Ga]Ga-BL34L11, metal not drawn] (K(X1)Y[Lys(iPr)][dR][2Nal][dA][dE][Lys(iPr)]-NH2; lactam N-7)', 'tissue uptake at 3 h', 0.22),
  ('CC(C)NCCCC[C@H](NC(=O)[C@H]1CCC(=O)N[C@@H](CCCCNC(=O)[C@H](CCCCNC(=O)CCCc2ccc(Cl)cc2)NC(=O)[C@H](CS(=O)(=O)O)NC(=O)CN2CCN(CC(=O)O)CCN(CC(=O)O)CCN(CC(=O)O)CC2)C(=O)N[C@@H](Cc2ccc(O)cc2)C(=O)N[C@@H](CCCCNC(C)C)C(=O)N[C@H](CCCNC(=N)N)C(=O)N[C@@H](Cc2ccc3ccccc3c2)C(=O)N[C@H](C)C(=O)N1)C(N)=O [[^68Ga]Ga-BL34L16, metal not drawn] (K(X5)Y[Lys(iPr)][dR][2Nal][dA][dE][Lys(iPr)]-NH2; lactam N-7)', 'tissue uptake at 3 h', 0.06),
  ('CC(C)NCCCC[C@H](NC(=O)[C@H]1CCC(=O)N[C@@H](CCCCNC(=O)[C@H](CCCCNC(=O)CCCc2ccc(Br)cc2)NC(=O)[C@H](CS(=O)(=O)O)NC(=O)CN2CCN(CC(=O)O)CCN(CC(=O)O)CCN(CC(=O)O)CC2)C(=O)N[C@@H](Cc2ccc(O)cc2)C(=O)N[C@@H](CCCCNC(C)C)C(=O)N[C@H](CCCNC(=N)N)C(=O)N[C@@H](Cc2ccc3ccccc3c2)C(=O)N[C@H](C)C(=O)N1)C(N)=O [[^177Lu]Lu-BL34L20, metal not drawn] (K(X3)Y[Lys(iPr)][dR][2Nal][dA][dE][Lys(iPr)]-NH2; lactam N-7)', 'tissue uptake at 3 h', 0.2),
  ('CC(C)NCCCC[C@H](NC(=O)[C@H]1CCC(=O)N[C@@H](CCCCNC(=O)[C@H](CCCCNC(=O)[C@H](CS(=O)(=O)O)NC(=O)CN2CCN(CC(=O)O)CCN(CC(=O)O)CCN(CC(=O)O)CC2)NC(=O)CNC(=O)CCCc2ccc(Cl)cc2)C(=O)N[C@@H](Cc2ccc(O)cc2)C(=O)N[C@@H](CCCCNC(C)C)C(=O)N[C@H](CCCNC(=N)N)C(=O)N[C@@H](Cc2ccc3ccccc3c2)C(=O)N[C@H](C)C(=O)N1)C(N)=O [[68Ga]Ga-BL34T1, metal not drawn] (K(X4)Y[Lys(iPr)][dR][2Nal][dA][dE][Lys(iPr)]-NH2; lactam N-7)', 'tissue uptake at 3 h', 0.16);
